Quick reference: TGI of the listed items.
System: HOP-62 NSCLC
procedure-details: NCI tumour cell line growth inhibition, 48 h

| molecule | TGI |
| --- | --- |
| C/C(=C\c1ccn(-c2ccc(N)cc2C(F)(F)F)n1)[C@@H]1C[C@@H]2O[C@]2(C)CCC[C@H](C)[C@H](O)[C@@H](C)C(=O)C(C)(C)[C@@H](O)CC(=O)O1 | 9.98 µM |
| C=CCN1C(=O)N/C(=C\c2ccc(Cl)cc2)C1=O | > 100 µM |
| Cc1ccc(-c2nc3nc(-c4ccc(Cl)cc4)nc(N4CCCNCC4)c3o2)cc1 | 3.64 µM |
| CC1N(O)C(c2ccccc2)C(c2ccccc2)=[N+]1[O-] (stereo not drawn) | > 100 µM |
| C=C1C(=O)O[C@H]2[C@H]1CC/C(COC(=O)NCCc1c[nH]c3ccccc13)=C\CC[C@@]1(C)O[C@@H]21 | 19.8 µM |
| O=C1OC2(c3ccccc31)c1cc(I)c(O)c(I)c1Oc1c2cc(I)c(O)c1I | > 100 µM |
| NC(=S)N/N=C1\C(=O)N(c2cccc([N+](=O)[O-])c2)C(=O)C1C(=O)Nc1cccc([N+](=O)[O-])c1 (stereo not drawn) | > 100 µM |
| CCC(C)C(NC(=O)C(CCCCN)NC(=O)C(NC(=O)C(CCC(N)=O)NC(=O)C(CCCNC(=N)N)NC(C)=O)C(C)CC)C(=O)NC(Cc1c[nH]c2ccccc12)C(=O)NC(Cc1ccccc1)C(=O)NC(CCC(N)=O)C(=O)NC(CC(N)=O)C(=O)NC(CCCNC(=N)N)C(=O)NC(CCCNC(=N)N)C(=O)NC(CCSC)C(=O)NC(CCCCN)C(=O)NC(Cc1c[nH]c2ccccc12)C(=O)NC(CCCCN)C(=O)NC(CCCCN)C(N)=O (stereo not drawn) | > 50 µM |
| CCCCCCCCO/N=C\c1c2c(O)c3c(O)c(C)c4c(c3c1O)C(=O)C(C)(O/C=C\C(OC)C(C)C(OC(C)=O)C(C)C(O)C(C)C(O)C(C)/C=C\C=C(\C)C(=O)N2)O4 (stereo not drawn) | 5.78 µM |
| CC1(C)OC(=O)C=C(O)O1.CC1(C)OC(=O)C=C(O)O1.CCO.Oc1ccc2c(c1)CCC2.[Ti] | > 100 µM |
| S=C(NCCCCCCNC(=S)Nc1c2ccccc2nc2ccccc12)Nc1c2ccccc2nc2ccccc12 | > 100 µM |
| COc1ccc(/C(Cl)=C(\C=O)c2cc(OC)c(OC)c(OC)c2)cc1OC | > 100 µM |
| C/C=C/CP(=O)(c1ccccc1)c1ccccc1 | > 100 µM |
| CCC/C(Cl)=N\OC(=O)Nc1ccc(Br)cc1 | 42.6 µM |
| NC(=Nc1ccc(Cl)c(Cl)c1)c1ccccc1N | > 100 µM |
| CC(=O)[CH-]C(C)=O.CC(=O)[CH-]C(C)=O.CC(=O)[CH-]C(C)=O.[Cl-].[Hf+4] | > 100 µM |
| Cn1c(Cc2ccccc2)nc2cc3ccccc3cc21 | > 100 µM |
| O=C(O)c1ccccc1C(=O)OCC1CCCN2CCCCC12 (stereo not drawn) | > 100 µM |
| OCC1OC(O)C(N=Cc2ccc3c(c2)OCO3)C(O)C1O (stereo not drawn) | > 100 µM |
| C[N+]1(C)C2CCC1CC(OC(=O)C(CO)c1ccccc1)C2 (stereo not drawn) | > 100 µM |
| N#CCc1[nH]nc2nc(SCc3ccccc3)nc(N3CCCCC3)c12 | 35.5 µM |
| CSC1=N/C(=C\c2ccc(Cl)cc2)C(=O)N1CN1CCOCC1 | > 100 µM |
| O=C1c2ccccc2-c2ccc(O)cc21 | > 100 µM |
| CCOC(=O)c1ccc2[nH]c(Cc3[nH]c4ccc(C(=O)OCC)cc4c3C)c(C)c2c1 | 14.7 µM |
| Cc1ccc2nc(CN3CCCCC3)cc(=O)n2c1 | > 100 µM |
| CN(C)Cc1cc(C(=O)/C=C/c2c(Cl)cccc2Cl)cc(CN(C)C)c1O | 20.2 µM |
| N#C/C(=C\c1ccc(Cl)cc1)n1nnc2cc(F)c(F)cc21 | 6.32 µM |
| CC(C)CC(NC(=O)OCc1ccccc1)C(=O)NCCCCC(N)C(=O)NC(CCCCNC(=O)C(CC(C)C)NC(=O)OCc1ccccc1)C(=O)NC(CCCCNC(=O)C(CC(C)C)NC(=O)OCc1ccccc1)C(=O)NC(CCCCNC(=O)C(CC(C)C)NC(=O)OCc1ccccc1)C(=O)NC(CCCCNC(=O)C(CC(C)C)NC(=O)OCc1ccccc1)C(=O)NC(CCCCNC(=O)C(CC(C)C)NC(=O)OCc1ccccc1)C(=O)O (stereo not drawn) | > 100 µM |
| O=S(=O)(NCCNc1cc(-c2cn(-c3ccccc3)nc2-c2cccc(O)c2)ccn1)c1ccc(F)cc1 | 5.44 µM |
| C=C1[C@H](OCC(C)C)[C@@H](OCC(C)C)[C@@H](O)C(C)(C)/C=C/[C@H](C)C(=O)[C@@]2(O)C[C@H](C)[C@H](O)[C@@H]2[C@H]1OCC(C)C | > 7.5 µM |
| CCSc1nc(=S)[nH]c2[nH]ncc12 | > 100 µM |
| Cc1ccc(C2=NN(C)COC2C(F)(F)F)cc1 (stereo not drawn) | > 100 µM |
| Cc1ccc(S(=O)(=O)Oc2coc(CO)cc2=O)cc1 | 34 µM |
